Let's go through some recorded pIC50 values for Tyrosine-protein phosphatase non-receptor type 1 (Homo sapiens) together.
pIC50: −log10 of the molar value.
reported endpoint: pIC50

INSERT INTO assay_data (cpd_smiles, recorded_value) VALUES
  ('O=C(Nc1ccc(O)cc1)/C(=C/c1c[nH]c2ccccc12)NC(=O)c1ccccc1', 4.67),
  ('O=C1NC(=O)C(=Cc2ccc(Sc3nc4ccc([N+](=O)[O-])cc4s3)c([N+](=O)[O-])c2)C(=O)N1', 5.39),
  ('O=C(Nc1ccccc1)Nc1cc(-c2ccc(Cl)cc2)nn1-c1ccccc1', 4.92),
  ('CSc1[nH]nc(NC(=O)c2ccc(Cl)c(Cl)c2)c1S(=O)(=O)c1ccc(Cl)cc1', 4.19),
  ('O=C(O)c1ccc(N2C(=O)/C(=C\C=C\c3ccccc3)SC2=S)cc1', 5.36),
  ('CCOc1cc(/C=C2/N=C(c3ccc4c(c3)OCO4)OC2=O)cc(Cl)c1OC(C)=O', 4.46),
  ('Oc1cccc(-c2nc(-c3ccc(-c4ccccc4)cc3)c(-c3ccc(-c4ccccc4)cc3)[nH]2)c1', 5.07);
